biological target: α2β2γ1 GABAA receptor subtype (Homo sapiens (Human), UniProt P47869+Q8N1C3); assay: Two-electrode voltage clamp electrophysiology in Xenopus oocytes expressing GABAA receptors (modulation of GABA EC20 current); format: cell-based; conditions: % modulation of GABA EC20 = 100*(Fold increase-1); α2β2γ1 oocytes; compound at approx. 30-fold Ki
Response key: yes means Efficacy (GABA)% >= 80%; no means Efficacy (GABA)% < 80%.

> print(dat)
                            chemical.string  category
1  C[C@@H]1N=C(c2c(F)cccc2F)c2c(ccc(Cl)c2Cl)-n2nc(C(=O)N3CC4(COC4)C3)nc21        no
2  C[C@@H]1N=C(c2c(F)cccc2F)c2c(ccc(Cl)c2Cl)-n2nc(C(=O)N3CC(CF)C3)nc21        no
3  Cc1c(C(=O)NC[C@@H](C)O)nc2n1-c1ccc(C(F)(F)F)c(Cl)c1C(c1ncccc1F)=N[C@H]2C       yes
4  CO[C@H]1CCN(C(=O)c2nc3n(n2)-c2ccc(Cl)c(Cl)c2C(c2c(F)cccc2F)=N[C@H]3C)C1        no
5  O=C(c1nc2n(n1)-c1ccc(Cl)c(Cl)c1C(c1c(F)cccc1F)=NC2)N1CC(O)C1       yes

Kindly consider the entry below.
Query: Hello, I need to know if C[C@@H]1N=C(c2c(F)cccc2F)c2c(ccc(C(F)(F)F)c2Cl)-n2nc(C(=O)NC[C@@H](C)O)nc21 has measured Efficacy (GABA)% not below 80%. Thanks!
Response: yes

###

target: α2β2γ1 GABAA receptor subtype (Homo sapiens (Human), UniProt P47869+Q8N1C3); experiment: Two-electrode voltage clamp electrophysiology in Xenopus oocytes expressing GABAA receptors (modulation of GABA EC20 current); assay type: cell-based; details: Xenopus oocytes expressing α2β2γ1; compound at approx. 30-fold its Ki α2β2γ1; GABA EC20 current
test_readout: Fold increase h-GABA-A α2β2γ1 oocyte @ 30-fold Ki
Please give the numeric answer without any surrounding text.

compound	measurement
C[C@@H]1N=C(c2c(F)cccc2F)c2c(ccc(C(F)(F)F)c2Cl)-n2nc(NC(=O)N3C4CC3CS(=O)(=O)C4)nc21 (single isomer, unassigned) [Example 134]	2.01

Query: Could you tell me which Fold increase h-GABA-A α2β2γ1 oocyte @ 30-fold Ki is on file for C[C@@H]1N=C(c2c(F)cccc2F)c2c(ccc(Cl)c2Cl)-n2nc(C(=O)N3CC4(CCOCC4)C3)nc21 [Example 99] ?
Response: 1.52

Query: Could you tell me which Fold increase h-GABA-A α2β2γ1 oocyte @ 30-fold Ki is on file for COC1CN(C(=O)Nc2nc3n(n2)-c2ccc(Cl)c(Cl)c2C(c2c(F)cccc2F)=N[C@H]3C)C1 [Example 60] ?
Response: 2.07

Query: Could you tell me which Fold increase h-GABA-A α2β2γ1 oocyte @ 30-fold Ki is on file for C[C@@H]1N=C(c2c(F)cccc2F)c2c(ccc(C(F)(F)F)c2Cl)-n2nc(C(=O)N3CCS(=O)(=O)CC3)nc21 [Example 114] ?
Response: 1.88

Query: Could you tell me which Fold increase h-GABA-A α2β2γ1 oocyte @ 30-fold Ki is on file for COC1CN(C(=O)c2nc3n(n2)-c2ccc(Cl)c(Cl)c2C(c2ncccc2F)=NC3)C1 [Example 62] ?
Response: 1.93

Query: Could you tell me which Fold increase h-GABA-A α2β2γ1 oocyte @ 30-fold Ki is on file for CCOC1CN(C(=O)c2nc3n(n2)-c2ccc(Cl)c(Cl)c2C(c2ncccc2F)=N[C@H]3C)C1 [Example 86] ?
Response: 1.97

Query: Could you tell me which Fold increase h-GABA-A α2β2γ1 oocyte @ 30-fold Ki is on file for COC1CN(C(=O)c2nc3n(n2)-c2ccc(C(F)(F)F)c(Cl)c2C(c2c(F)cccc2F)=NC3)C1 [Example 37] ?
Response: 1.47

Query: Could you tell me which Fold increase h-GABA-A α2β2γ1 oocyte @ 30-fold Ki is on file for C[C@@H]1N=C(c2ncccc2F)c2c(ccc(C(F)(F)F)c2Cl)-n2cc(C(=O)NCCO)nc21 [Example 141] ?
Response: 2.12

Query: Could you tell me which Fold increase h-GABA-A α2β2γ1 oocyte @ 30-fold Ki is on file for C[C@@H]1N=C(c2c(F)cccc2F)c2c(ccc(C(F)(F)F)c2Cl)-n2ncnc21 [Example 22] ?
Response: 1.78

###

molecular target: human GABAA α2β2γ1 receptor (Homo sapiens (Human), UniProt P47869+Q8N1C3); test: Radioligand binding assay for γ1-containing GABAA subtypes, [3H]RO7239181 competition (α2β2γ1); conditions: Ki h-GABAA α2β2γ1, displacement of [3H]RO7239181, membranes of HEK293F cells expressing human receptors, means of two determinations
# Lookup of reported Ki keyed by entry
Just the number in nM, nothing appended.

In the examples that follow, each entry is paired with its recorded Ki.
> print(dat)
                                   compound  measurement
1  C[C@@H]1N=C(c2c(F)cccc2F)c2c(ccc(Cl)c2Cl)-n2nc(CO)nc21 [Example 13]         2.58
2  C[C@@H]1N=C(c2c(F)cccc2F)c2c(ccc(C(F)(F)F)c2Cl)-n2nc(C(=O)N3CCS(=O)(=O)CC3)nc21 [Example 114]          9.5
3  Cc1cnc2n1-c1ccc(C(F)(F)F)c(Cl)c1C(c1ncccc1F)=N[C@H]2C [Example 136]         37.5
4  C[C@@H]1N=C(c2ncccc2F)c2c(ccc(C(F)(F)F)c2Cl)-n2cc(C(=O)N[C@H]3C[C@@H](O)C3)nc21 [Example 166]         43.4
5  C[C@@H]1N=C(c2c(F)cccc2F)c2c(ccc(C(F)(F)F)c2Cl)-n2nc(C(=O)NCC#N)nc21 [Example 110]         12.1

Query: Could you tell me which Ki is on file for C[C@@H]1N=C(c2c(F)cccc2F)c2c(ccc(Cl)c2Cl)-n2nc(C(=O)N3CC(OC(F)F)C3)nc21 [Example 31] ?
Response: 17

Query: Could you tell me which Ki is on file for C[C@@H]1N=C(c2c(F)cccc2F)c2c(ccc(Cl)c2Cl)-n2nc(N3CCS(=O)(=O)CC3)nc21 [Example 52] ?
Response: 12.4

###

biological target: α2β2γ1 GABAA receptor subtype (Homo sapiens (Human), UniProt P47869+Q8N1C3); assay: Two-electrode voltage clamp electrophysiology in Xenopus oocytes expressing GABAA receptors (modulation of GABA EC20 current); format: cell-based; conditions: % modulation of GABA EC20 = 100*(Fold increase-1); α2β2γ1 oocytes; compound at approx. 30-fold Ki
# Lookup of reported Efficacy (GABA)% keyed by entry
Just the number in %, nothing appended.

> print(dat)
                                   compound      test.readout  measurement
1  C[C@@H]1N=C(c2ncccc2F)c2c(ccc(Cl)c2Cl)-n2nc(C(=O)N3CCC3)nc21 [Example 42]  Efficacy (GABA)%          114

Proceed to the following item.
Query: Hi! What's the reported Efficacy (GABA)% for C[C@@H]1N=C(c2ncccc2F)c2c(ccc(C(F)(F)F)c2Cl)-n2nc(C(=O)N3CC4(CCCO4)C3)nc21 [Example 113] on α2β2γ1 GABAA receptor subtype (Homo sapiens (Human), UniProt P47869+Q8N1C3)?
Response: 76

###

molecular target: human GABAA α1β3γ2 receptor (Homo sapiens (Human), UniProt P14867+P18507); test: Radioligand binding assay for γ2-containing GABAA subtypes, [3H]Flumazenil competition (α1β3γ2); details: Log[Ki α1β3γ2 (nM)/Ki α2β2γ1 (nM)]
Output satisfied for records whose LogSel is lower than 2, not satisfied for records at or above 2.

> print(dat)
                                   compound       category
1  CN(C)C(=O)c1nc2n(n1)-c1ccc(Cl)c(Cl)c1C(c1c(F)cccc1F)=NC2 [Example 9]  not satisfied

Query: For this compound, is LogSel lower than 2? C[C@@H]1N=C(c2ncccc2F)c2c(ccc(C(F)(F)F)c2Cl)-n2nc(C(=O)N3CC4(CCOC4)C3)nc21 [Example 120]
Response: satisfied

Query: For this compound, is LogSel lower than 2? C[C@H](O)CNC(=O)c1nc2n(n1)-c1ccc(Cl)c(Cl)c1C(c1c(F)cccc1F)=N[C@H]2C [Example 63]
Response: not satisfied

Query: For this compound, is LogSel lower than 2? C[C@H](O)CNC(=O)c1nc2n(n1)-c1ccc(C(F)(F)F)c(Cl)c1C(c1c(F)cccc1F)=N[C@H]2C [Example 109]
Response: not satisfied

Query: For this compound, is LogSel lower than 2? Cc1cnc2n1-c1ccc(C(F)(F)F)c(Cl)c1C(c1c(F)cccc1F)=N[C@H]2C [Example 115]
Response: satisfied

Query: For this compound, is LogSel lower than 2? C[C@@H]1N=C(c2c(F)cccc2F)c2c(ccc(Cl)c2Cl)-n2cc(C(=O)N3CCC3)nc21 [Example 70]
Response: satisfied

src = patent US12365687B2
